Test system: MDA-MB-435
Experiment: NCI tumour cell line growth inhibition, 48 h
The source made the active and inactive calls. Rule as the data show it: active = GI50 up to about 1.1 µM and inactive = higher.
Outcome codes: label 1 = active, label 0 = inactive

{"molecule": "CCOC(=O)N(C)C1(c2ccccc2)CCN(CCCC(=O)c2ccc(F)cc2)CC1", "group": "label 0"}
{"molecule": "O=S(=O)(O)c1cc(S(=O)(=O)O)c2c(/N=N/c3ccc(/N=N/c4ccccc4)cc3)c(O)ccc2c1", "group": "label 0"}
{"molecule": "COC(=O)c1ccc2cc(O)c(O)cc2c1", "group": "label 0"}
{"molecule": "N=C(N)NS(=O)(=O)c1ccc(NC(=O)c2ccc3nc4ccccc4c(Nc4ccc(S(N)(=O)=O)cc4)c3c2)cc1", "group": "label 0"}
{"molecule": "CN1c2ccccc2C2=C(c3ccccc3)CC[C@@H](C(=O)N3C4CC5CC[C@@]4(CS3(=O)=O)C5(C)C)[C@@H]21 (some centres undefined)", "group": "label 0"}
{"molecule": "O=C(Cn1c(-c2ccccc2)cc2ccccc21)N1CCOCC1", "group": "label 0"}
{"molecule": "O=C(/C=C/c1ccc(C(F)(F)F)cc1)c1c([O-])on[n+]1-c1ccccc1", "group": "label 0"}
{"molecule": "CC(CC(=O)CO[C@H]1[C@H](O)[C@@H](O)[C@@H](O)[C@@H]2NC(=O)c3c(cc4c(c3O)OCO4)[C@H]21)OC1OC(CO)C(O)C(O)C1O (some centres undefined)", "group": "label 1"}
{"molecule": "COc1ccc2nc3cc(Cl)ccc3c(Nc3ccc(O)c(CN4CCN(C)CC4)c3)c2c1", "group": "label 0"}
{"molecule": "Clc1ccc(Cl)c(SCCCN2CCNCC2)c1", "group": "label 0"}
{"molecule": "S=c1nc(N2CCCCC2)c2cn[nH]c2[nH]1", "group": "label 0"}
{"molecule": "C[C@@H]1S[C@H](c2c(Cl)cccc2Cl)N2Cc3ccccc3N=C12", "group": "label 0"}
{"molecule": "O=C(OCc1ccccc1)C1(N2CN(C3(C(=O)OCc4ccccc4)CCCC3)CN(C3(C(=O)OCc4ccccc4)CCCC3)C2)CCCC1", "group": "label 0"}
{"molecule": "CCCCCCCCCCC/C=C(/C(=O)CCCO[Si](C)(C)C(C)(C)C)C(=O)OC", "group": "label 0"}
{"molecule": "CCNc1cc2c3c(c1)CCCN3CCC2", "group": "label 0"}
{"molecule": "O=C(CSCC(=O)N/N=C/c1ccncc1)N/N=C/c1ccncc1", "group": "label 0"}
{"molecule": "c1ccc(/N=C2/SC(c3ccccc3)(c3ccccc3)c3ccccc32)cc1", "group": "label 0"}
{"molecule": "COC(=O)Cc1c(-c2[nH]c3ccccc3c2CC(=O)OC)[nH]c2ccccc12", "group": "label 0"}
{"molecule": "O=C(CNC(=O)OCc1ccccc1)NCCCCC(NC(=O)OCc1ccccc1)C(=O)NC(CCCCNC(=O)CNC(=O)OCc1ccccc1)C(=O)OCc1ccccc1 (centres undefined)", "group": "label 0"}

* * *

Test system: HCC 2998
Assay: NCI tumour cell line growth inhibition, 48 h
The source made the active and inactive calls. Cut-off read from the data, not from the text of the source: active = GI50 up to about 1.1 µM and inactive = higher.

{"compound": "CCCSc1cc(Cl)c(C)cc1S(=O)(=O)n1ccnc1OCCCN(C)C", "GI50": "> 100 µM (inactive)"}
{"compound": "CCc1nc(N)nc(N)c1-c1ccc(Cl)c(/N=N/N(C)C)c1", "GI50": "23.7 µM (inactive)"}
{"compound": "CNc1ccc2ncccc2c1[N+](=O)[O-]", "GI50": "> 100 µM (inactive)"}
{"compound": "Cc1cn(C2OC(CO)C(O)C2F)c(=O)[nH]c1=O (stereo unspecified)", "GI50": "> 100 µM (inactive)"}
{"compound": "Cn1cnc([N+](=O)[O-])c1Sc1nc(N)nc2c1ncn2[C@H]1C[C@H](O)[C@@H](CO)O1", "GI50": "13.8 µM (inactive)"}
{"compound": "COC1C(=O)CCC2(CO2)C1(O)C1(C)OC1CC=C(C)C (stereo unspecified)", "GI50": "17.7 µM (inactive)"}
{"compound": "C[C@@H]1OC(=O)C[C@H]2CC(=O)N(CCC3CN(C(=O)OCc4ccccc4)c4ccccc43)C[C@@H]21 (stereo partly specified)", "GI50": "> 100 µM (inactive)"}
{"compound": "O=c1oc2ccccc2cc1-c1nc2ccccc2c(=O)[nH]1", "GI50": "> 100 µM (inactive)"}
{"compound": "O=C(/C=C/c1ccc(-c2ccccc2)cc1)NCc1ccc(C(=O)NCCc2c[nH]c3ccccc23)cc1", "GI50": "83.4 µM (inactive)"}
{"compound": "CN1N=C(N)c2cn(C3OC(COP(=O)(O)O)C(O)C3O)c3ncnc1c23 (stereo unspecified)", "GI50": "129 µM (inactive)"}
{"compound": "Cc1ccc([S+]([O-])c2sccc2C=O)cc1 (stereo unspecified)", "GI50": "32.7 µM (inactive)"}

* * *

Test system: SN12C
Experiment: NCI tumour cell line growth inhibition, 48 h
The source made the active and inactive calls. Rule as the data show it: active = GI50 up to about 1.1 µM and inactive = higher.

{"compound": "COC(=O)c1cc(/C=C/C(=O)Cc2ccccc2)cn1S(=O)(=O)c1ccccc1", "target-under-test": "SN12C", "GI50": "> 100 µM (inactive)"}
{"compound": "CN1c2ccccc2C2=C(c3ccccc3)CC[C@@H](C(=O)N3C4CC5CC[C@@]4(CS3(=O)=O)C5(C)C)[C@@H]21 (some centres not stated)", "target-under-test": "SN12C", "GI50": "> 100 µM (inactive)"}
{"compound": "NCc1ccc(-c2ccc(CN)s2)s1", "target-under-test": "SN12C", "GI50": "> 100 µM (inactive)"}
{"compound": "O=C(NCO)NCOCn1c(=O)n(CO)c(=O)n(CO)c1=O", "target-under-test": "SN12C", "GI50": "> 60.7 µM (inactive)"}
{"compound": "C/C=C(/C)c1cnc(CC(C)C)c(=O)[nH]1", "target-under-test": "SN12C", "GI50": "> 100 µM (inactive)"}
{"compound": "FC(F)(F)C1(Br)C(c2ccccc2)=C1c1ccccc1", "target-under-test": "SN12C", "GI50": "14 µM (inactive)"}
{"compound": "O=Cc1ccc(-c2ccc(-c3ccc(C=O)s3)o2)s1", "target-under-test": "SN12C", "GI50": "97.9 µM (inactive)"}
{"compound": "O=C1CCC[C@H]2O[C@@H](COC(=O)c3ccccc3)C[C@H]2O1", "target-under-test": "SN12C", "GI50": "> 100 µM (inactive)"}
{"compound": "C=CN(C=C)C(=O)Cn1cc(-c2ccccc2)nn1", "target-under-test": "SN12C", "GI50": "> 100 µM (inactive)"}
{"compound": "C1=C(c2ccccc2)SC(N2CCCCC2)S1 (configuration not stated)", "target-under-test": "SN12C", "GI50": "> 100 µM (inactive)"}
{"compound": "Cc1nn(C(=O)Cc2ccccc2)c2c1C(c1ccc([N+](=O)[O-])cc1)SC(=N)N2 (configuration not stated)", "target-under-test": "SN12C", "GI50": "> 100 µM (inactive)"}
{"compound": "O=C(Cn1c(-c2ccccc2)cc2ccccc21)N1CCOCC1", "target-under-test": "SN12C", "GI50": "> 100 µM (inactive)"}
{"compound": "CN(C)CCCNC(=O)c1c(O)c2ccccc2n(C)c1=O", "target-under-test": "SN12C", "GI50": "67.1 µM (inactive)"}
{"compound": "CCOC(=O)Nn1cnnc1C", "target-under-test": "SN12C", "GI50": "> 100 µM (inactive)"}
{"compound": "O=C1c2ccccc2C2(c3ccc(Cl)cc3)NCc3ccccc3CN12 (configuration not stated)", "target-under-test": "SN12C", "GI50": "43.4 µM (inactive)"}
{"compound": "c1ccc2c(c1)N=c1cc3c(cc1N2)=NC12CCCCC1CC1=C(CCCC1)N32 (configuration not stated)", "target-under-test": "SN12C", "GI50": "2.36 µM (inactive)"}
{"compound": "O=C1c2ccccc2C(=O)c2c1ccc(C1C(=O)c3ccccc3C1=O)c2-c1c(C2C(=O)c3ccccc3C2=O)ccc2c1C(=O)c1ccccc1C2=O", "target-under-test": "SN12C", "GI50": "> 100 µM (inactive)"}
{"compound": "CSc1ccc(/C=C2\\N=C(c3ccccc3)N(NC(=O)c3c(Cl)c(Cl)c(Cl)c(Cl)c3-c3nc4ccccc4[nH]3)C2=O)cc1", "target-under-test": "SN12C", "GI50": "31 µM (inactive)"}
{"compound": "COC(=O)C1=Cc2cc(OC)c(OC)c(OC)c2[C@H](c2cc(OC)c(OC)c(OC)c2)C1C(=O)OC (some centres not stated)", "target-under-test": "SN12C", "GI50": "> 100 µM (inactive)"}
{"compound": "Nc1ncc2c(n1)-c1ccccc1OC2N1CCCCC1 (configuration not stated)", "target-under-test": "SN12C", "GI50": "> 100 µM (inactive)"}
{"compound": "CCCCCCCCCCC/C=C(/C(=O)CCCO[Si](C)(C)C(C)(C)C)C(=O)OC", "target-under-test": "SN12C", "GI50": "> 100 µM (inactive)"}
{"compound": "CCOC(=O)c1csc(CCCCCCc2nc(C(=O)OCC)cs2)n1", "target-under-test": "SN12C", "GI50": "> 82.6 µM (inactive)"}
{"compound": "CN1N=C(N)c2cn(C3OC(COP(=O)(O)O)C(O)C3O)c3ncnc1c23 (configuration not stated)", "target-under-test": "SN12C", "GI50": "4.24 µM (inactive)"}
{"compound": "Cc1ccccc1NC(=O)C(=O)C(C#N)c1ccccc1C (configuration not stated)", "target-under-test": "SN12C", "GI50": "> 100 µM (inactive)"}
{"compound": "N/N=C1N=C(Cl)/C(=C/c2ccco2)N\\1", "target-under-test": "SN12C", "GI50": "67.1 µM (inactive)"}
{"compound": "c1ccc(/N=C2/SC(c3ccccc3)(c3ccccc3)c3ccccc32)cc1", "target-under-test": "SN12C", "GI50": "> 100 µM (inactive)"}
{"compound": "COc1ccc(C2CC(C)(O)Oc3cc4c(cc32)OCO4)cc1 (configuration not stated)", "target-under-test": "SN12C", "GI50": "45.8 µM (inactive)"}
{"compound": "CC(=O)Nc1c(S(=O)(=O)c2ccccc2)c(C)c(C)n1CCN(C)C", "target-under-test": "SN12C", "GI50": "> 100 µM (inactive)"}
{"compound": "Cc1cc(C)c2c(=O)cc(-c3ccccc3)[nH]c2c1", "target-under-test": "SN12C", "GI50": "5.25 µM (inactive)"}
{"compound": "CSC(=O)C[C@@]12O[C@@H]([C@@H](C)C3CCC4[C@@H]5C(O)CC6=CC(=O)C=C[C@]6(C)C5CC[C@@]43C)C[C@](C)(O1)C(C)(C)O2 (some centres not stated)", "target-under-test": "SN12C", "GI50": "16.6 µM (inactive)"}
{"compound": "COc1c2c(nc3ccccc13)-c1cc(C(CC(=O)OC(C)(C)C)C(=O)OC(C)C)c(CO)c(=O)n1C2 (configuration not stated)", "target-under-test": "SN12C", "GI50": "45.8 µM (inactive)"}
{"compound": "COc1ccc2[nH]c3c(c2c1)[C@H]1CCC(C(C)(C)C)C[C@H]1[C@H]1C(=O)N(c2ccccc2)C(=O)[C@@H]31 (some centres not stated)", "target-under-test": "SN12C", "GI50": "11.9 µM (inactive)"}
{"compound": "COC(=O)c1c2c(cc3c1CC1(C3)Cc3cc4c(c(C(=O)OC)c3C1)CCC4)CCC2", "target-under-test": "SN12C", "GI50": "> 100 µM (inactive)"}
{"compound": "N#Cc1c(C#N)c(-c2ccccc2)n(Cc2ccccc2)c1N", "target-under-test": "SN12C", "GI50": "> 100 µM (inactive)"}
{"compound": "N#CCCC1(CCC#N)CCCCCCC(CCC#N)(CCC#N)C(=O)C1=O", "target-under-test": "SN12C", "GI50": "58.2 µM (inactive)"}
{"compound": "O=C(O)[C@H](NS(=O)(=O)c1ccc2ccccc2c1)c1ccccc1", "target-under-test": "SN12C", "GI50": "> 100 µM (inactive)"}
{"compound": "COC(=O)/C(C=O)=C/Sc1ccccc1", "target-under-test": "SN12C", "GI50": "19.7 µM (inactive)"}
{"compound": "CC(C)(C)OC(=O)C1=C(O)C(C(=O)OC(C)(C)C)C23CCCCC12C(C(=O)OC(C)(C)C)C(O)=C3C(=O)OC(C)(C)C (configuration not stated)", "target-under-test": "SN12C", "GI50": "> 100 µM (inactive)"}
{"compound": "O=[N+]([O-])c1nccn1COCCF", "target-under-test": "SN12C", "GI50": "> 100 µM (inactive)"}
{"compound": "COC(=O)/C(C#N)=C1\\CCC(OC)N1C (configuration not stated)", "target-under-test": "SN12C", "GI50": "> 100 µM (inactive)"}
{"compound": "Cc1ccc([S+]([O-])c2sccc2C=O)cc1 (configuration not stated)", "target-under-test": "SN12C", "GI50": "22.9 µM (inactive)"}
{"compound": "CSc1sc(=S)sc1C(=O)N(C)c1ccccc1", "target-under-test": "SN12C", "GI50": "> 100 µM (inactive)"}

Values were extracted from ChEMBL document CHEMBL1201862.
